# System: Digitaria sanguinalis
# test-protocol: Post-emergence treatment, herbicidal efficacy on large crabgrass
# Type: in vivo
# assay-context: post-emergence, 125 g/ha, 4 weeks after spraying, scale 0 to 10
# Description: A rectangular plastic pot having a surface area of 300 cm^2 was filled with sandy loam soil and mixed bed soil which were mixed at a ratio of 1:1, and then, barnyardrass (Echinochloa crusgalli), large crabgrass (Digitaria sanguinalis), blackgrass (Alopecurus myosuroides), and annual bluegrass (Poa annua), which are grass weeds, were seeded thereto. In a pot that was prepared as described above, seeds of corn, soybean, cotton, wheat, and rice were seeded. […]
readout-kind: Herbicidal efficacy, Digitaria sanguinalis

- Cc1ccccc1C1=NOC(C)(COCc2ccccc2)C1 (stereo not drawn) [Reference C]: 1
- CC1(COCc2c(F)cccc2F)CC(c2ccccc2F)=NO1 (stereo not drawn): 6
- Cc1cccc(C2=NOC(C)(COCc3c(F)cccc3F)C2)c1 (stereo not drawn) [Reference F]: 0
- CC1(COCc2c(F)cccc2F)CC(c2ccccc2Cl)=NO1 (stereo not drawn): 5
- Cc1ccccc1C1=NOC(C)(COCc2ccccc2F)C1 (stereo not drawn) [Reference D]: 0
- CC1(COCc2ccccc2F)CC(c2ccccc2[N+](=O)[O-])=NO1 (stereo not drawn) [Reference A]: 0

====

# System: Digitaria sanguinalis
# test-protocol: Pre-emergence treatment, herbicidal efficacy on large crabgrass
# Format: in vivo
# assay-context: 62.5 g/ha, 4 weeks after spraying, scale 0 to 10
readout-kind: Herbicidal efficacy, Digitaria sanguinalis

• CC1(COCc2c(F)cccc2F)CC(c2ccccc2Br)=NO1 (stereo not shown) [Compound 3] = 10
• Cc1ccc(C2=NOC(C)(COCc3c(F)cccc3F)C2)cc1 (stereo not shown) [Reference G] = 1
• CC1(COCc2ccccc2F)CC(c2ccccc2[N+](=O)[O-])=NO1 (stereo not shown) [Reference A] = 0
• Cc1ccccc1C1=NOC(C)(COCc2c(F)cccc2F)C1 (stereo not shown) [Compound 1] = 9

====

# key: entry, value: Herbicidal efficacy, Echinochloa crusgalli
# Tested on: Echinochloa crusgalli
# test-protocol: Pre-emergence treatment, herbicidal efficacy on barnyardgrass
# Format: in vivo
# assay-context: 62.5 g/ha, 4 weeks after spraying, scale 0 to 10
readout-kind: Herbicidal efficacy, Echinochloa crusgalli

* CC1(COCc2c(F)cccc2Cl)CC(c2ccccc2Cl)=NO1 (stereo not drawn) [Reference B] | 2
* Cc1ccccc1C1=NOC(C)(COCc2ccccc2)C1 (stereo not drawn) [Reference C] | 2
* Cc1ccccc1C1=NOC(C)(COCc2c(F)cccc2Cl)C1 (stereo not drawn) [Reference E] | 2
* Cc1cccc(C2=NOC(C)(COCc3c(F)cccc3F)C2)c1 (stereo not drawn) [Reference F] | 0
* CC1(COCc2c(F)cccc2F)CC(c2ccccc2C(F)(F)F)=NO1 (stereo not drawn) [Compound 5] | 10
* Cc1ccccc1C1=NOC(C)(COCc2ccccc2F)C1 (stereo not drawn) [Reference D] | 1
